# ASSAY_TARGET: His-BIR3 (241-356, XIAP) (Homo sapiens)
# Construct: additions of His-BIR3 (241-356, XIAP), fluorescein labeled SMAC peptide
# Sequence (P98170 241-356): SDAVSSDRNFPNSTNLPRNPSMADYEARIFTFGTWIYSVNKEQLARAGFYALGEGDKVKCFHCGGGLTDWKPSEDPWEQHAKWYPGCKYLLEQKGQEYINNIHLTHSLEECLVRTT
# PROCEDURE_DETAILS: XIAP-BIR3/SMAC Homogeneous Time Resolved Fluorescence (HTRF) Assay
# TEST_SETTINGS: fluorescein labeled SMAC peptide
I'd appreciate it if you could supply pIC50 values for the items below.
Please express pIC50 as -log10 of the molar concentration.

Sure, the documented pIC50 for CC[C@H](NC(=O)[C@H](C)NC)C(=O)N1C[C@@H]2C[C@H]1C(=O)N[C@@H](c1ccccc1)C(=O)N[C@H](C(=O)O)Cc1ccc(cc1)C(=O)N[C@H]1C[C@@H](C(=O)N[C@@H](Cc3ccc4ccccc4c3)C(=O)N[C@H](C(=O)O)Cc3ccc(cc3)OC/C=C/CO2)N(C(=O)[C@@H](NC(=O)[C@H](C)NC)C(C)(C)C)C1 [Example 52] is 7.11

Sure, the documented pIC50 for CN[C@@H](C)C(=O)N[C@H](C(=O)N1C[C@@H]2C[C@H]1C(=O)N[C@@H](Cc1ccc3ccccc3c1)C(=O)N[C@H](C(=O)O)Cc1ccc(cc1)C(=O)N[C@H]1C[C@@H](C(=O)N[C@@H](Cc3ccc4ccccc4c3)C(=O)N[C@H](C(=O)O)Cc3ccc(cc3)OC/C=C/CO2)N(C(=O)[C@@H](NC(=O)[C@H](C)NC)C(C)(C)C)C1)C(C)O (stereo partly drawn) is 7.84

Sure, the documented pIC50 for CN[C@@H](C)C(=O)N[C@H](C(=O)N1C[C@@H]2C[C@H]1C(=O)N[C@@H](Cc1ccc3ccccc3c1)C(=O)N[C@H](C(=O)O)Cc1ccc(cc1)OCc1cn(nn1)[C@H]1C[C@@H](C(=O)N[C@@H](Cc3ccc4ccccc4c3)C(=O)N[C@H](C(=O)O)Cc3ccc(cc3)OCCCCO2)N(C(=O)[C@@H](NC(=O)[C@H](C)NC)C(C)(C)C)C1)C(C)(C)C is 7.94

Sure, the documented pIC50 for CN[C@@H](C)C(=O)N[C@@H](CCC(=O)O)C(=O)N1C[C@@H]2C[C@H]1C(=O)N[C@@H](Cc1ccc3ccccc3c1)C(=O)N[C@H](C(=O)O)Cc1ccc(cc1)C(=O)N[C@H]1C[C@@H](C(=O)N[C@@H](Cc3ccc4ccccc4c3)C(=O)N[C@H](C(=O)O)Cc3ccc(cc3)OC/C=C/CO2)N(C(=O)[C@@H](NC(=O)[C@H](C)NC)C(C)(C)C)C1 is 7.75

Sure, the documented pIC50 for CN[C@@H](C)C(=O)N[C@H](C(=O)N[C@H]1C/C=C/COc2ccc(cc2)C[C@@H](C(=O)O)NC(=O)[C@H](Cc2ccc3ccccc3c2)NC(=O)[C@@H]2CN(CCN2C(=O)[C@@H](NC(=O)[C@H](C)NC)C(C)(C)C)C(=O)CNC(=O)CC[C@@H](C(=O)O)NC(=O)[C@H](Cc2ccc3ccccc3c2)NC1=O)C(C)(C)C is 7.08

Sure, the documented pIC50 for CN[C@@H](C)C(=O)N[C@H](C(=O)N1C[C@H]2C/C=C/COc3ccc(cc3)C[C@@H](C(=O)NS(C)(=O)=O)NC(=O)[C@H](Cc3ccc4ccccc4c3)NC(=O)[C@@H]3C[C@@H](CN3C(=O)[C@@H](NC(=O)[C@H](C)NC)C(C)(C)C)n3cc(nn3)COc3ccc(cc3)C[C@@H](C(=O)O)NC(=O)[C@H](Cc3ccc4ccccc4c3)NC(=O)[C@@H]1C2)C(C)(C)C is 8.41
